Collected glycan array binding signal (z-score) values appear next to each entry.
# measuredTarget: Fuc(a1-3)[Gal(b1-4)]GlcNAc(b1-2)Man
# method: glycan array binding signal (z-score within array); higher = stronger binding
# testConditions: glycan notation: IUPAC condensed, linker removed
About 410 targets per protein were measured; listed, in parts, are those with the strongest signals and a random draw of the rest.
Number, no unit, nothing else.

Epa2 (Candida glabrata) (protein) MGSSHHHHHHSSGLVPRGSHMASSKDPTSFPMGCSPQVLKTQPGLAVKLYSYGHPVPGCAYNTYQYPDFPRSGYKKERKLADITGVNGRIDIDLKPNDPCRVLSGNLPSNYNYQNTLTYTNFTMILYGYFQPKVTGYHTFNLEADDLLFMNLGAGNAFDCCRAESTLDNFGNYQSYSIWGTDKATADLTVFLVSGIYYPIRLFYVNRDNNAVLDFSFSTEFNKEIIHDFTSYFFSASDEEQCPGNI: -1.15
AidA (Burkholderia cenocepacia) (protein) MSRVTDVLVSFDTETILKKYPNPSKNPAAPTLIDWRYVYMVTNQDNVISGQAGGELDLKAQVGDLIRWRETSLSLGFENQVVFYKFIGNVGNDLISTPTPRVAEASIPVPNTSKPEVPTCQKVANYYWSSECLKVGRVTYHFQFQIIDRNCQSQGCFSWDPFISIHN: 0.556

Using the record for Epa13 (Candida glabrata) (protein) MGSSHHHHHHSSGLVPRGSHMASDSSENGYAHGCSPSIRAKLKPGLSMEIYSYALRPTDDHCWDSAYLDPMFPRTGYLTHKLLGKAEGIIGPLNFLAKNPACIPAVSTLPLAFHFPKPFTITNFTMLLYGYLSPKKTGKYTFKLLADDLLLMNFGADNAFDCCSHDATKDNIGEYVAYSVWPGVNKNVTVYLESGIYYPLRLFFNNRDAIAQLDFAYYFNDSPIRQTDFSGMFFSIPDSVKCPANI , state its measured glycan array binding signal (z-score). -0.124
